# Tested on: primary rat hepatocytes
# experiment: Inhibition of lipid synthesis ([1-14C]-acetate incorporation) in primary cultures of rat hepatocytes
# Type: cell-based
# conditions_used: Rattus norvegicus, Hepatocyte, 4 h, 0-300 μM

{"columns": ["compound", "tgt", "IC50 (µM)"],
 "data": [
  ["CC(CO)(CCCCCNC(=O)NCCc1ccccc1)c1ccccc1 (stereo not drawn)", "primary rat hepatocytes", 223],
  ["CC(C)(CO)CCCCNC(=O)NCCCc1ccccc1", "primary rat hepatocytes", 51],
  ["CC(C)(CO)CCCCNC(=O)NCCCC(C)(C)CO", "primary rat hepatocytes", 34]
]}
